Data origin: the kinase profiling compilation of Christmann-Franck et al. (2016)

- study_system: UniProtKB Q15569
- Sequence (Q15569 whole entry, looked up): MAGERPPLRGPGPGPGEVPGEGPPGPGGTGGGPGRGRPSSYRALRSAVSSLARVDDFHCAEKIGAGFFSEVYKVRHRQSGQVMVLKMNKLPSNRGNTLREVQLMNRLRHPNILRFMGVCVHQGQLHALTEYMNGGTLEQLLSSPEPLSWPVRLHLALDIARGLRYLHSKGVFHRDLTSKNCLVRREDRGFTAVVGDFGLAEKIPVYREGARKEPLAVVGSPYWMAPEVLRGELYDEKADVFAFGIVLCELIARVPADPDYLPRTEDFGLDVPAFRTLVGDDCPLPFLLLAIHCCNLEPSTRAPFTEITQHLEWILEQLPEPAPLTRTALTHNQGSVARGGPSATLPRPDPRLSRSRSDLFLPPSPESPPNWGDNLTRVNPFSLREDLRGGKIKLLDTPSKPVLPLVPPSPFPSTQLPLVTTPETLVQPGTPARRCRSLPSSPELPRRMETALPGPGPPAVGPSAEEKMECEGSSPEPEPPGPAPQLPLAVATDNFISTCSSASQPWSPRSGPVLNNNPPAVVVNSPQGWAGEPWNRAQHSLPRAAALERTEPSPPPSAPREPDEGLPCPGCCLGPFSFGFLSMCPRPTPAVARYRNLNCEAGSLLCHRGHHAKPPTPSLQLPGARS
- test: radiometric filter-binding kinase assay
- assay_context: compound 0.1 µM

compound | readout_unit | residual activity
CC1=C(CO)C(=O)O[C@@H]([C@@H](C)[C@H]2CC[C@H]3[C@@H]4C[C@H]5O[C@]56[C@@H](O)C=CC(=O)[C@]6(C)C4CC[C@]23C)C1 (stereo partly drawn) | % | 109
CN1CCN(CCOc2cc(OC3CCOCC3)c3c(Nc4c(Cl)ccc5c4OCO5)ncnc3c2)CC1 | % | 94
Cc1cc(NC(=O)c2cccc(NC(=O)/C=C/CN(C)C)c2)ccc1Nc1nccc(-c2cccnc2)n1 | % | 89
COc1cc(O)c2c(c1)[C@H]1OC1C[C@H](O)[C@H](O)C(=O)/C=C\C[C@H](C)OC2=O (stereo partly drawn) | % | 107
NC(=O)c1cc(-c2ccnc(NC3CCCCC3)c2)nc(N2CCNCC2)c1 | % | 99
CNC(=O)C1[C@H]2O[C@@](C)([C@@H]1N)n1c3ccccc3c3c4c(c5c6ccccc6n2c5c31)C(=O)NC4 (stereo partly drawn) | % | 19
Cc1ccc(-c2ccc3c(ccc4sc5c(c43)NC[C@@H](C)NC5=O)n2)cn1 | % | 112
C=CC(=O)N1CCC[C@@H](n2nc(-c3ccc(Oc4ccccc4)cc3)c3c(N)ncnc32)C1 | % | 69
CN(C)C/C=C/C(=O)Nc1cccc(C(=O)Nc2ccc(Nc3nccc(-c4cccnc4)n3)cc2)c1 | % | 90
CCn1c(-c2nonc2N)nc2cncc(CNC3CCNCC3)c21 | % | 103
O=C(N[C@@H](COc1ccc2[nH]c(=O)[nH]c2c1)c1ccccc1)c1cccn(Cc2ccc(F)c(F)c2)c1=O | % | 98
COc1ccc(-n2ncc3cnc(Nc4cc(OC)c(OC)c(OCCCN5CCN(C)CC5)c4)nc32)cc1 | % | 59
COc1ccc(N(C(=O)Nc2c(C)cccc2C)c2cc(Nc3ccc(N4CCN(C)CC4)cc3)ncn2)c(OC)c1 | % | 29

###

residual activity by entry:
- study_system: TEK (human) (UniProt Q02763)
- Sequence (Q02763 whole entry, looked up): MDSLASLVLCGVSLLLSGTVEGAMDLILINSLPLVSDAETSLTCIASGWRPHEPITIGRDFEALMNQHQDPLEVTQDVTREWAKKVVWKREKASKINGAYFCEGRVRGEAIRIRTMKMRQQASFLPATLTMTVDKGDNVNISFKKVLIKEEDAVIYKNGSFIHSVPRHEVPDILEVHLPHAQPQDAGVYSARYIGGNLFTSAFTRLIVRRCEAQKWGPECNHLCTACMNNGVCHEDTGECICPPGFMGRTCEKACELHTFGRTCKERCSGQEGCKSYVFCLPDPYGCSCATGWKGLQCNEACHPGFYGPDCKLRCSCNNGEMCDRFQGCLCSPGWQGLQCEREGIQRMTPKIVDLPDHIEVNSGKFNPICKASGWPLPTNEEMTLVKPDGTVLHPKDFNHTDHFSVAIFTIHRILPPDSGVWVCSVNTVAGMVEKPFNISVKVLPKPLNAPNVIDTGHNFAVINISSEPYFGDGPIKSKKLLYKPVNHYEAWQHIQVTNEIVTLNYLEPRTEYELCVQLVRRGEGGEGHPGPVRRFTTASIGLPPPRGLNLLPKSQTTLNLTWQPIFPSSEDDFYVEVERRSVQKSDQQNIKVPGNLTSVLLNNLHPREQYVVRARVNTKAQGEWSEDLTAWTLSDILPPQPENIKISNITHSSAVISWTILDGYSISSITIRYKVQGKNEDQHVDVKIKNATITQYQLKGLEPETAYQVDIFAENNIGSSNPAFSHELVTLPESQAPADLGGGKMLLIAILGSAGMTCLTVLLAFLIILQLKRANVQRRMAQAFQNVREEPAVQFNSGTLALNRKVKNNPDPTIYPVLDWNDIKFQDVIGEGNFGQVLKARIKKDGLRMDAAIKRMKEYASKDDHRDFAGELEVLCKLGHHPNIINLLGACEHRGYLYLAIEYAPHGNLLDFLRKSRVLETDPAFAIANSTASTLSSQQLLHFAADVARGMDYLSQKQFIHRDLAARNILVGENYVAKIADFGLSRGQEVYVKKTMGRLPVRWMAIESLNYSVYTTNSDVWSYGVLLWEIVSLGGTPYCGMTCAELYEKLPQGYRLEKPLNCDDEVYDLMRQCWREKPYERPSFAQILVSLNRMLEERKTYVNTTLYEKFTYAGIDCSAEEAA
- test: radiometric filter-binding kinase assay
- assay_context: compound 10.0 µM

compound | study_system | readout_unit | residual activity
COc1cc(C(=O)N2CCOCC2)c(F)cc1Nc1ncc(C(F)(F)F)c(NC2CC2)n1 | TEK (human) (UniProt Q02763) | % | 91
O=C(NOC[C@H](O)CO)c1ccc(F)c(F)c1Nc1ccc(I)cc1Cl | TEK (human) (UniProt Q02763) | % | 96
CC(C)(C#N)c1ccc(N2C(=O)OCc3cnc4ccc(-c5cnc6ccccc6c5)cc4c32)cc1 | TEK (human) (UniProt Q02763) | % | 95
Cc1ccc(-c2ccc3c(ccc4sc5c(c43)NC[C@@H](C)NC5=O)n2)cn1 | TEK (human) (UniProt Q02763) | % | 88
CC1=C(CO)C(=O)O[C@@H]([C@@H](C)[C@H]2CC[C@H]3[C@@H]4C[C@H]5O[C@]56[C@@H](O)C=CC(=O)[C@]6(C)C4CC[C@]23C)C1 (some centres not stated) | TEK (human) (UniProt Q02763) | % | 83
CCOC(=O)c1ccc(N2NC(=O)/C(=C/c3ccc([N+](=O)[O-])o3)C2=O)cc1 | TEK (human) (UniProt Q02763) | % | 128
O=C(N[C@@H](COc1ccc2[nH]c(=O)[nH]c2c1)c1ccccc1)c1cccn(Cc2ccc(F)c(F)c2)c1=O | TEK (human) (UniProt Q02763) | % | 96
COC(=O)/C=C/C(=O)OC | TEK (human) (UniProt Q02763) | % | 92
O=S(=O)(c1ccc(F)c2nonc12)N1CCN(c2ncc(C(F)(F)F)cc2Cl)CC1 | TEK (human) (UniProt Q02763) | % | 112
Cc1nc(-c2ccc(OCC(C)C)c(C#N)c2)sc1C(=O)O | TEK (human) (UniProt Q02763) | % | 67
CNc1nc(-c2ccc3c(N)n[nH]c3c2)cc(N2C[C@@H](C(=O)NC3CCCCC3)CC[C@H]2C)n1 | TEK (human) (UniProt Q02763) | % | 76
O=C(NOCC(O)CO)c1ccc(F)c(F)c1Nc1ccc(I)cc1Cl (configuration not stated) | TEK (human) (UniProt Q02763) | % | 87
CCn1c(-c2nonc2N)nc2cncc(CNC3CCNCC3)c21 | TEK (human) (UniProt Q02763) | % | 111
CCCCCc1ccc(/C=C/[C@H](O)[C@@H](CO)NC)cc1 | TEK (human) (UniProt Q02763) | % | 113
NC(=O)c1c(NC(=O)C2CC2)sc2c1CCCC2 | TEK (human) (UniProt Q02763) | % | 75
CC(C)C[C@H](NC(=O)CNC(=O)c1cc(Cl)ccc1Cl)B1OC(=O)CC(CC(=O)O)(C(=O)O)O1 (some centres not stated) | TEK (human) (UniProt Q02763) | % | 98
C=CC(=O)N1CCC[C@@H](n2nc(-c3ccc(Oc4ccccc4)cc3)c3c(N)ncnc32)C1 | TEK (human) (UniProt Q02763) | % | 9
CCNc1nc(Nc2cc(F)c(C(=O)N3CCOCC3)cc2OC)ncc1C(F)(F)F | TEK (human) (UniProt Q02763) | % | 85
O=C(Nc1cccnc1)c1cc(-c2ccnc(F)c2)ccc1OCc1ccccc1 | TEK (human) (UniProt Q02763) | % | 133
c1ccc2c(-c3cnn4cc(-c5ccc(N6CCNCC6)cc5)cnc34)ccnc2c1 | TEK (human) (UniProt Q02763) | % | 30
Cc1ccc(=O)n(-c2ccccc2)c1 | TEK (human) (UniProt Q02763) | % | 118
NC(=O)c1cc(-c2ccnc(NC3CCCCC3)c2)nc(N2CCNCC2)c1 | TEK (human) (UniProt Q02763) | % | 84

###

- study_system: MAPK14 (human) (UniProt Q16539)
- Sequence (Q16539 whole entry, looked up): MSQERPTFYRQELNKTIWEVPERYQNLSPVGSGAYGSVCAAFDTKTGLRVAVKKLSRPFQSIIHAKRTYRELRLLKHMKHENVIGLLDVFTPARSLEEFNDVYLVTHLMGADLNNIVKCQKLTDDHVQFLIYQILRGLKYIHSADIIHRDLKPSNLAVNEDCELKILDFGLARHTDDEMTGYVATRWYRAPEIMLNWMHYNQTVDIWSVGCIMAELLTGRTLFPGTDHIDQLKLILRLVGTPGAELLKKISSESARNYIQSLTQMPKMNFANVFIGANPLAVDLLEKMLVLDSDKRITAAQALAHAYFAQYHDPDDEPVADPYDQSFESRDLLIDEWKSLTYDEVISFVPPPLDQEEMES
- test: radiometric filter-binding kinase assay
- assay_context: compound 100.0 µM
residual activity by entry:

smiles_string | residual activity
N#Cc1c(O)c2c(-c3ccc(-c4ccccc4O)cc3)csc2[nH]c1=O | 90%
COC(=O)/C=C/C(=O)OC | 99%
Cc1ccc2c(c1)C(=O)[C@@]1(O)CCN(c3ccccc3)C1=N2 | 80%
Cc1cc(N=Nc2cc(S(=O)(=O)O)c(C)cc2C)c(N)cc1O | 58%

###

- Test system: PAK2 (human), Q13177 [T402E]
- Sequence (Q13177 whole entry T402E, looked up): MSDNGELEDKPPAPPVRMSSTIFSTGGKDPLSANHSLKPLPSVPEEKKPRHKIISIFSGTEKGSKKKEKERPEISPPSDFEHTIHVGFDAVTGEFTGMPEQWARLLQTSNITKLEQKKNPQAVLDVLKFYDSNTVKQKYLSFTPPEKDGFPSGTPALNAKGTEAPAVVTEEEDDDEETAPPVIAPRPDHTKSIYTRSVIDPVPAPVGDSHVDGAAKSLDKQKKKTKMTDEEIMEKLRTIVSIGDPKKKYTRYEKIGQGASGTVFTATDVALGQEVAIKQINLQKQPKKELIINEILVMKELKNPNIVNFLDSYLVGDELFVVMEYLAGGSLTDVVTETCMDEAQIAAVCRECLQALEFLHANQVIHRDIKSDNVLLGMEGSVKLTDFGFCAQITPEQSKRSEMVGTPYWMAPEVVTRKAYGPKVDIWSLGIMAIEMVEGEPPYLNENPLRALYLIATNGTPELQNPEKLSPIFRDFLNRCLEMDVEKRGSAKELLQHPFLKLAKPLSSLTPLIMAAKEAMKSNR
- test: radiometric filter-binding kinase assay
- assay_context: compound 0.1 µM
# residual activity >= 90% gives class 1, anything below gives class 0

molecule | class_assignment
C=CC(=O)N1CCC[C@@H](n2nc(-c3ccc(Oc4ccccc4)cc3)c3c(N)ncnc32)C1 | class 0
COc1cc(O)c2c(c1)/C=C/C[C@H](O)[C@H](O)C(=O)/C=C\C[C@H](C)OC2=O | class 1
c1ccc2c(-c3cnn4cc(-c5ccc(N6CCNCC6)cc5)cnc34)ccnc2c1 | class 1
CN1CCN(CCOc2cc(OC3CCOCC3)c3c(Nc4c(Cl)ccc5c4OCO5)ncnc3c2)CC1 | class 1
COc1cc(O)c2c(c1)[C@H]1OC1C[C@H](O)[C@H](O)C(=O)/C=C\C[C@H](C)OC2=O (some centres undefined) | class 1
CC1=C(CO)C(=O)O[C@@H]([C@@H](C)[C@H]2CC[C@H]3[C@@H]4C[C@H]5O[C@]56[C@@H](O)C=CC(=O)[C@]6(C)C4CC[C@]23C)C1 (some centres undefined) | class 1
COc1ccc(N(C(=O)Nc2c(C)cccc2C)c2cc(Nc3ccc(N4CCN(C)CC4)cc3)ncn2)c(OC)c1 | class 0
O=C(Nc1nc2cc(C(F)(F)F)cc(NC3CC3)n2n1)c1cccnc1 | class 1
CN(C)C/C=C/C(=O)Nc1cccc(C(=O)Nc2ccc(Nc3nccc(-c4cccnc4)n3)cc2)c1 | class 1
NC(=O)c1cc(-c2ccnc(NC3CCCCC3)c2)nc(N2CCNCC2)c1 | class 1
CCn1c(-c2nonc2N)nc2cncc(CNC3CCNCC3)c21 | class 1
CNC(=O)C1[C@H]2O[C@@](C)([C@@H]1N)n1c3ccccc3c3c4c(c5c6ccccc6n2c5c31)C(=O)NC4 (some centres undefined) | class 0
CNc1nc(-c2ccc3c(N)n[nH]c3c2)cc(N2C[C@@H](C(=O)NC3CCCCC3)CC[C@H]2C)n1 | class 1
Cc1cccc(-c2nn(C(=S)Nc3ccccc3)cc2-c2ccnc3ccccc23)n1 | class 1
NC1(c2ccc(-c3nc4ccn5c(=O)[nH]nc5c4cc3-c3ccccc3)cc2)CCC1 | class 1
Cc1ccc(Sc2cnc(Nc3cccc(Br)n3)s2)cc1C(=O)N1CCN(C(=O)CN)CC1 | class 0
Cc1ccc(-c2ccc3c(ccc4sc5c(c43)NC[C@@H](C)NC5=O)n2)cn1 | class 1
NC(=O)c1cc2c(-c3cccc(-c4ccccc4)c3)cnc(N)c2s1 | class 1
Cc1cc(NC(=O)c2cccc(NC(=O)/C=C/CN(C)C)c2)ccc1Nc1nccc(-c2cccnc2)n1 | class 1
